# credit: patent US20110098296A1

Test system: SK-MEL-28 tumor cells
Experiment: Method C: Cell Growth Inhibition Assay (CellTiter-Glo), SK-MEL-28
Assay type: cell-based
Details: Homo sapiens, SK-MEL-28, 72 h, 3 days, 4-parameter fit
pIC50: −log10 of the molar value.
Documented pIC50 across a set of compounds

{"compound": "COc1ccc(Nc2nccc(-c3sc(NC4CC4)nc3-c3cccc(NC(=O)c4c(F)cccc4F)c3)n2)cc1OCCN(C)C [Example 32]", "observation-type": "pIC50", "data-value": "6.00 to 7.00"}
{"compound": "CN1CCC(c2nc(-c3cccc(NC(=O)c4c(F)cccc4F)c3)c(-c3ccnc(Nc4ccc5c(c4)CN(C)CC5)n3)s2)CC1 [Example 125]", "observation-type": "pIC50", "data-value": "6.00 to 7.00"}
{"compound": "Cc1nc(-c2cccc(NC(=O)c3ccc(F)cc3)c2)c(-c2ccnc(Nc3ccc(OCCN(C)C)c(Cl)c3)n2)s1 [Example 134]", "observation-type": "pIC50", "data-value": "< 6.00"}
{"compound": "O=C(Nc1cccc(-c2nc(CF)sc2-c2ccnc(Nc3ccc(OCCN4CCCC4)c(F)c3)n2)c1)c1c(F)cccc1F [Example 127]", "observation-type": "pIC50", "data-value": "< 6.00"}

For the next question, use this compound.
Measured pIC50 for this entry CCc1nc(-c2cccc(NC(=O)c3c(F)cccc3F)c2)c(-c2ccnc(Nc3ccc(OCCN4CCCC4)c(F)c3)n2)s1 [Example 117] on SK-MEL-28 tumor cells: < 6.00
